Molecular target: GLEPP-1 (Homo sapiens)
Construct: using the catalytic core of a human recombinant PTP as the enzyme
Sequence (Q16827 938-1195 limits assumed): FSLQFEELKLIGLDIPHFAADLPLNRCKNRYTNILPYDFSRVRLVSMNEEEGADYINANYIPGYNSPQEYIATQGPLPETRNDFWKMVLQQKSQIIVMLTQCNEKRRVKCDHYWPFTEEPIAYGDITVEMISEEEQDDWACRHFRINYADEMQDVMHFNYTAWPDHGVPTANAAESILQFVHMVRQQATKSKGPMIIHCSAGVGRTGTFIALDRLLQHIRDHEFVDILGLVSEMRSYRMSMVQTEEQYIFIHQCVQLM
Experiment: PTP Enzyme Assay (DiFMUP), GLEPP-1
Conditions: 30 μM DiFMUP substrate; catalytic core of human recombinant PTP; triplicates; read-out: IC50 value in respect of GLEPP-1
pIC50: −log10 of the molar value.
ASSAY_ENDPOINT: pIC50

[P] CCCCCCCCC#Cc1ccc(CN(C(=O)CCC2CCCC2)c2ccc(O)c(C(=O)O)c2)cc1 [Example 2]
[Q] CCCCc1ccc(C#Cc2ccc(CN(C(=O)C(C)(C)C)c3ccc(C(=O)O)c(O)c3)cc2)cc1 [Example 76]
[R] CCCCc1ccc(C#Cc2ccc(CN(C(=O)Cc3cccs3)c3ccc(F)c(C(=O)O)c3)cc2)cc1 [Example 68]
[S] CCCCCCCCC#Cc1ccc(CN(Cc2ccc(OCC(=O)O)c(C(=O)O)c2)C(=O)/C=C/c2ccccc2)cc1 [Example 16]
# input Rank descending by pIC50: all 4 compounds from above. Please, when replying, give the labels in the order that was requested.
# output S, P, Q, R

###

Target: SHP-2 (Homo sapiens)
Construct: using the catalytic core of a human recombinant PTP as the enzyme
Sequence (Q06124 247-517 limits assumed): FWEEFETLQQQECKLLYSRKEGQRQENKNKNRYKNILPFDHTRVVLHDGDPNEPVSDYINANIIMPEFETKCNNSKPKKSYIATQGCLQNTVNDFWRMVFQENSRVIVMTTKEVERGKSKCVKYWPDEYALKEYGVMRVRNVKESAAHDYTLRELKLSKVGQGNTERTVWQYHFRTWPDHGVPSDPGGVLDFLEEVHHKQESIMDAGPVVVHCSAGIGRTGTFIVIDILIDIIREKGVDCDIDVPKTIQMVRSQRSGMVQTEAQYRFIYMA
Assay: PTP Enzyme Assay (DiFMUP), SHP-2
Assay type: biochemical
Settings: 20 μM DiFMUP substrate; catalytic core of human recombinant PTP; triplicates; read-out: IC50 value in respect of SHP-2
ASSAY_ENDPOINT: IC50 (nM)

Example entries and their recorded answers appear below.
                                   compound  value_units  measured_number
0  CCCCCCCCC#Cc1ccc(CN(Cc2ccc(OCC(=O)O)c(C(=O)O)c2)C(=O)/C=C/c2ccccc2)cc1 [Example 16]           nM             1400
1  CCCCc1ccc(C#Cc2ccc(CN(C(=O)C(C)(C)C)c3ccc(C(=O)O)c(O)c3)cc2)cc1 [Example 76]           nM             2200

[a] CCCCc1ccc(C#Cc2ccc(CN(C(=O)Cc3cccs3)c3ccc(F)c(C(=O)O)c3)cc2)cc1 [Example 68]
[b] CCCCCCCCC#Cc1ccc(CN(C(=O)CCC2CCCC2)c2ccc(O)c(C(=O)O)c2)cc1 [Example 2]
# input Kindly identify the item with the lower IC50 figure among these two: a and b Give the label under which the chosen entry appears.
# output b
(b: 490 nM, a: 1900 nM)

###

Biological target: PTP1B (Homo sapiens, UniProt P18031)
Construct: using the catalytic core of a human recombinant PTP as the enzyme
Sequence (P18031 3-277 limits assumed): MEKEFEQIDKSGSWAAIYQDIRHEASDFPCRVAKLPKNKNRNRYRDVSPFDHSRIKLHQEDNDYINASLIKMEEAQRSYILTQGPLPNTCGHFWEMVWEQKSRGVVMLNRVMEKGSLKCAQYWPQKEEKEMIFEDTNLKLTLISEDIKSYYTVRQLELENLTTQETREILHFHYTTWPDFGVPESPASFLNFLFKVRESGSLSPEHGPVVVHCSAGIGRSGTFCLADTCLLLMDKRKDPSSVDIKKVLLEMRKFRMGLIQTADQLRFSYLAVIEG
Experiment: PTP Enzyme Assay (DiFMUP), PTP1B
Conditions: 5 μM DiFMUP substrate; catalytic core of human recombinant PTP; triplicates; read-out: IC50 value in respect of PTP1B
pIC50: −log10 of the molar value.
ASSAY_ENDPOINT: pIC50

In [3]: df
Out[3]:
                                   molecule  assay_endpoint  measured_number
0  CCCCCCCCC#Cc1ccc(CN(C(=O)CCC2CCCC2)c2ccc(O)c(C(=O)O)c2)cc1 [Example 2]           pIC50             6.31

[I] CCCCc1ccc(C#Cc2ccc(CN(C(=O)C(C)(C)C)c3ccc(C(=O)O)c(O)c3)cc2)cc1 [Example 76]
[II] CCCCc1ccc(C#Cc2ccc(CN(C(=O)Cc3cccs3)c3ccc(F)c(C(=O)O)c3)cc2)cc1 [Example 68]
[III] CCCCCCCCC#Cc1ccc(CN(Cc2ccc(OCC(=O)O)c(C(=O)O)c2)C(=O)/C=C/c2ccccc2)cc1 [Example 16]
# input Sort low-to-high on pIC50, please. Please, when replying, give the labels in the order that was requested.
# output I, II, III
